target-under-test: GAK (human) (UniProt O14976)
Sequence (O14976 whole entry, looked up): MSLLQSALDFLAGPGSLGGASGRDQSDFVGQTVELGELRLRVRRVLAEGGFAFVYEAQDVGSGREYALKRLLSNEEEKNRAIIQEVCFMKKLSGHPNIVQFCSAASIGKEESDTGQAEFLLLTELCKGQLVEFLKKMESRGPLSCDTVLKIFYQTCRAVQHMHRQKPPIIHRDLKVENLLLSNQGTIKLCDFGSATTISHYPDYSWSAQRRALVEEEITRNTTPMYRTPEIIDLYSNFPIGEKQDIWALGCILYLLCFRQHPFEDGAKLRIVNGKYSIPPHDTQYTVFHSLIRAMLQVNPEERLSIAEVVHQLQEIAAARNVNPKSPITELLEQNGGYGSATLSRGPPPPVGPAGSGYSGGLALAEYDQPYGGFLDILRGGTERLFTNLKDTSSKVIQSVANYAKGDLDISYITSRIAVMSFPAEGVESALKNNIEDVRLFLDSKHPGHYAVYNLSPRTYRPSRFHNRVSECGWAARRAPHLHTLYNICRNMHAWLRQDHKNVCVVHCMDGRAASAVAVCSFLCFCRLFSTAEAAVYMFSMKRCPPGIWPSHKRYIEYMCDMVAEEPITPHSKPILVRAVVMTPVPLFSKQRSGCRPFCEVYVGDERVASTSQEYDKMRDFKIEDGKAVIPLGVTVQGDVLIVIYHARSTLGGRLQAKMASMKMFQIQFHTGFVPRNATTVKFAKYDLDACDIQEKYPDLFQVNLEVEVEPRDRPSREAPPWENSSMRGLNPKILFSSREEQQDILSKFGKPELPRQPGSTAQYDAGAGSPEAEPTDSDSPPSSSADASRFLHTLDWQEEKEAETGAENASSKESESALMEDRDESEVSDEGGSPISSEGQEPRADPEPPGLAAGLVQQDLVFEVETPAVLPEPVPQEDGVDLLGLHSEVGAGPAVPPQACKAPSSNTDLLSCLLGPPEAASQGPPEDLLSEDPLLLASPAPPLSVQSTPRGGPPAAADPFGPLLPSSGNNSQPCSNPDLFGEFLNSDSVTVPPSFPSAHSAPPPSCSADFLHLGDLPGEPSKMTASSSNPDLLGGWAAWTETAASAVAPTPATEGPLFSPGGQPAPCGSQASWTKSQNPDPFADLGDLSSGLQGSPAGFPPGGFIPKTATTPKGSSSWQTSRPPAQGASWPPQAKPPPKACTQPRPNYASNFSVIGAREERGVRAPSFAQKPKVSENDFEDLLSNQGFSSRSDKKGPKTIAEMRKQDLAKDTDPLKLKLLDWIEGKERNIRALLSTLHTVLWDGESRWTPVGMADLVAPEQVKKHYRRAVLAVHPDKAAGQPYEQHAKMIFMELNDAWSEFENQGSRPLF
measurement-notes: KINOMEscan competition binding
applied-conditions: compound 10.0 µM
Binary label based on kinase still bound, per cent of control with cut-off 5%: below gives label 1, not below gives label 0.

>>> category("CCOc1cc(N2CCC(O)CC2)ccc1Nc1ncc2c(n1)N(C)c1ccccc1C(=O)N2C")
"label 0"
>>> category("CCN(CCO)CCCOc1ccc2c(Nc3cc(CC(=O)Nc4cccc(F)c4)[nH]n3)ncnc2c1")
"label 0"
>>> category("Cc1cn(-c2cc(C(=O)Nc3ccc(C)c(NC(=O)c4ccno4)c3)cc(C(F)(F)F)c2)cn1")
"label 0"
>>> category("COc1cc(C)c(Sc2cnc(NC(=O)c3ccc(CNC(C)C(C)C)cc3)s2)cc1C(=O)N1CCN(C(C)=O)CC1 (stereo not drawn)")
"label 0"
>>> category("CNC(=O)Nc1ccc(-c2nc(N3CC4CCC(C3)O4)c3cnn(C4CCC5(CC4)OCCO5)c3n2)cc1")
"label 0"
>>> category("CCc1nc(-c2cccc(C)c2)c(-c2ccnc(NC(=O)c3ccccc3)c2)s1")
"label 1"
>>> category("COc1cc2c(Nc3ccc(NC(=O)c4ccccc4)cc3)ncnc2cc1OCCCN1CCOCC1")
"label 0"
>>> category("N#Cc1cc(-c2ccnc(Nc3ccc(-n4cnc(-c5cccnc5)n4)cc3)n2)cc(N2CCOCC2)c1")
"label 0"
>>> category("COc1cc(N2CCC(C(N)=O)CC2)ccc1Nc1nc(N)c(Cl)c(Nc2ccccc2S(=O)(=O)C(C)C)n1")
"label 1"
>>> category("COc1cc2ncnc(Nc3cccc(Cl)c3)c2cc1OC")
"label 1"
>>> category("N#C/C(=C1/Nc2ccccc2S1)c1ccnc(NCCc2cccnc2)n1")
"label 1"
>>> category("CC1=C(C(=O)Nc2cc3cn[nH]c3cc2F)C(c2ccc(C(F)(F)F)cc2)CC(=O)N1 (stereo not drawn)")
"label 0"
>>> category("C=CC(=O)Nc1ccc(C(=O)c2sc(Nc3ccc(N4CCN(C)CC4)cc3OC)nc2N)cc1")
"label 1"
>>> category("CC(=O)c1c(C)c2cnc(Nc3ccc(N4CCNCC4)cn3)nc2n(C2CCCC2)c1=O")
"label 1"
>>> category("CCN1CCN(Cc2ccc(NC(=O)c3ccc(C)c(/C=C/c4cnc5[nH]ccc5c4OC)c3)cc2C(F)(F)F)CC1")
"label 1"
>>> category("CCCS(=O)(=O)Nc1ccc(F)c(C(=O)c2c[nH]c3ncc(Cl)cc23)c1F")
"label 0"
>>> category("O=c1[nH]c2ccccc2n1C1CCN(Cc2ccc(-c3nc4cc5[nH]cnc5cc4nc3-c3ccccc3)cc2)CC1")
"label 0"
>>> category("COc1ccc(N(C(=O)Oc2cc(C(=O)Nc3cccc(C(F)(F)F)c3)ccc2C)c2ccnc(Nc3ccc(N4CCN(C)CC4)cc3)n2)c(OC)c1")
"label 0"

====

target-under-test: UniProt P31749
Sequence (P31749 whole entry, looked up): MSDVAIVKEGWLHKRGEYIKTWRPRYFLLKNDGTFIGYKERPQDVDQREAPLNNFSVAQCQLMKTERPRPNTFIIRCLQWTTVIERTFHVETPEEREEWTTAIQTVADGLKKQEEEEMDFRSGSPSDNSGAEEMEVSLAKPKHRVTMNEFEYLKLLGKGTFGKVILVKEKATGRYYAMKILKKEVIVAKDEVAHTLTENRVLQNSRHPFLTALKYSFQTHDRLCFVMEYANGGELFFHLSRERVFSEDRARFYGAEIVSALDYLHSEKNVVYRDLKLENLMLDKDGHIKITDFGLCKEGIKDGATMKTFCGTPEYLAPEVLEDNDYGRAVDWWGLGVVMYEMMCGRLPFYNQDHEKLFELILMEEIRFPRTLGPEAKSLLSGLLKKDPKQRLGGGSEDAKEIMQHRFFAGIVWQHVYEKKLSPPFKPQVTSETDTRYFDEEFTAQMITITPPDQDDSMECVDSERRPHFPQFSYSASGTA
measurement-notes: KINOMEscan competition binding
applied-conditions: compound 10.0 µM
endpoint: kinase still bound, per cent of control (%)

>>> numeric_result("N#C/C(=C1/Nc2ccccc2S1)c1ccnc(NCCc2cccnc2)n1")
100
>>> numeric_result("CCOc1cc(N2CCC(O)CC2)ccc1Nc1ncc2c(n1)N(C)c1ccccc1C(=O)N2C")
100
>>> numeric_result("CCN(CCO)CCCOc1ccc2c(Nc3cc(CC(=O)Nc4cccc(F)c4)[nH]n3)ncnc2c1")
96
>>> numeric_result("CNC(=O)Nc1ccc(-c2nc(N3CC4CCC(C3)O4)c3cnn(C4CCC5(CC4)OCCO5)c3n2)cc1")
81
>>> numeric_result("COc1cc2c(Nc3ccc(NC(=O)c4ccccc4)cc3)ncnc2cc1OCCCN1CCOCC1")
100
>>> numeric_result("CC(=O)c1c(C)c2cnc(Nc3ccc(N4CCNCC4)cn3)nc2n(C2CCCC2)c1=O")
92
>>> numeric_result("Cc1cn(-c2cc(C(=O)Nc3ccc(C)c(NC(=O)c4ccno4)c3)cc(C(F)(F)F)c2)cn1")
100
>>> numeric_result("COc1cc(C)c(Sc2cnc(NC(=O)c3ccc(CNC(C)C(C)C)cc3)s2)cc1C(=O)N1CCN(C(C)=O)CC1 (stereo not drawn)")
100
>>> numeric_result("C=CC(=O)Nc1ccc(C(=O)c2sc(Nc3ccc(N4CCN(C)CC4)cc3OC)nc2N)cc1")
100
>>> numeric_result("N#Cc1cc(-c2ccnc(Nc3ccc(-n4cnc(-c5cccnc5)n4)cc3)n2)cc(N2CCOCC2)c1")
100
>>> numeric_result("O=c1[nH]c2ccccc2n1C1CCN(Cc2ccc(-c3nc4cc5[nH]cnc5cc4nc3-c3ccccc3)cc2)CC1")
77
>>> numeric_result("CCCS(=O)(=O)Nc1ccc(F)c(C(=O)c2c[nH]c3ncc(Cl)cc23)c1F")
100
>>> numeric_result("COc1ccc(N(C(=O)Oc2cc(C(=O)Nc3cccc(C(F)(F)F)c3)ccc2C)c2ccnc(Nc3ccc(N4CCN(C)CC4)cc3)n2)c(OC)c1")
100
>>> numeric_result("COc1cc2ncnc(Nc3cccc(Cl)c3)c2cc1OC")
100
>>> numeric_result("CC1=C(C(=O)Nc2cc3cn[nH]c3cc2F)C(c2ccc(C(F)(F)F)cc2)CC(=O)N1 (stereo not drawn)")
76
>>> numeric_result("COc1cc(N2CCC(C(N)=O)CC2)ccc1Nc1nc(N)c(Cl)c(Nc2ccccc2S(=O)(=O)C(C)C)n1")
100
>>> numeric_result("CCc1nc(-c2cccc(C)c2)c(-c2ccnc(NC(=O)c3ccccc3)c2)s1")
100
>>> numeric_result("CCN1CCN(Cc2ccc(NC(=O)c3ccc(C)c(/C=C/c4cnc5[nH]ccc5c4OC)c3)cc2C(F)(F)F)CC1")
100

====

target-under-test: ZAP70 (human) (UniProt P43403)
Sequence (P43403 whole entry, looked up): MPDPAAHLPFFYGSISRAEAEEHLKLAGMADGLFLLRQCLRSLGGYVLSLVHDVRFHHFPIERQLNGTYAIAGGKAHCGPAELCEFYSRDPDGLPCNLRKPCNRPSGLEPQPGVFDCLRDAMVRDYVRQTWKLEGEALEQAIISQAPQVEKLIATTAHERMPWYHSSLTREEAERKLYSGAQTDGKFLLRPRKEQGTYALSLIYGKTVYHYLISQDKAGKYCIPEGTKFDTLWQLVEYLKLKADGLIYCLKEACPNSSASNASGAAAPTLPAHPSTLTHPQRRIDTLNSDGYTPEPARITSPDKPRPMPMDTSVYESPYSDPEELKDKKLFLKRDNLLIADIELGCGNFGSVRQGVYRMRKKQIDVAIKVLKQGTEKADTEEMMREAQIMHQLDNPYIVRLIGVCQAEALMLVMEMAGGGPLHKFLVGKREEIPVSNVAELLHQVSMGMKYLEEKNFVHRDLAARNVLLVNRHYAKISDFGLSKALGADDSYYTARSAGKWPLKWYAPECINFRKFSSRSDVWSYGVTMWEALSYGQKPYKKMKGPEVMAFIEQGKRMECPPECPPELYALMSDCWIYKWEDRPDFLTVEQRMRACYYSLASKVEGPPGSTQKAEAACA
measurement-notes: KINOMEscan competition binding
applied-conditions: compound 10.0 µM
kinase still bound, per cent of control values, listed per item
endpoint: kinase still bound, per cent of control (%)

>>> numeric_result("CCCS(=O)(=O)Nc1ccc(F)c(C(=O)c2c[nH]c3ncc(Cl)cc23)c1F")
85
>>> numeric_result("CC1=C(C(=O)Nc2cc3cn[nH]c3cc2F)C(c2ccc(C(F)(F)F)cc2)CC(=O)N1 (centres undefined)")
100
>>> numeric_result("CCN1CCN(Cc2ccc(NC(=O)c3ccc(C)c(/C=C/c4cnc5[nH]ccc5c4OC)c3)cc2C(F)(F)F)CC1")
52
>>> numeric_result("COc1cc(N2CCC(C(N)=O)CC2)ccc1Nc1nc(N)c(Cl)c(Nc2ccccc2S(=O)(=O)C(C)C)n1")
100
>>> numeric_result("N#Cc1cc(-c2ccnc(Nc3ccc(-n4cnc(-c5cccnc5)n4)cc3)n2)cc(N2CCOCC2)c1")
70
>>> numeric_result("CCc1nc(-c2cccc(C)c2)c(-c2ccnc(NC(=O)c3ccccc3)c2)s1")
100
>>> numeric_result("CCN(CCO)CCCOc1ccc2c(Nc3cc(CC(=O)Nc4cccc(F)c4)[nH]n3)ncnc2c1")
84
>>> numeric_result("COc1cc2c(Nc3ccc(NC(=O)c4ccccc4)cc3)ncnc2cc1OCCCN1CCOCC1")
100
>>> numeric_result("COc1cc(C)c(Sc2cnc(NC(=O)c3ccc(CNC(C)C(C)C)cc3)s2)cc1C(=O)N1CCN(C(C)=O)CC1 (centres undefined)")
100

====

Reported values of kinase still bound, per cent of control for individual entries
target-under-test: MELK (human)
measurement-notes: KINOMEscan competition binding
applied-conditions: compound 10.0 µM
endpoint: kinase still bound, per cent of control

>>> result("C=CC(=O)Nc1ccc(C(=O)c2sc(Nc3ccc(N4CCN(C)CC4)cc3OC)nc2N)cc1")
"87%"
>>> result("CNC(=O)Nc1ccc(-c2nc(N3CC4CCC(C3)O4)c3cnn(C4CCC5(CC4)OCCO5)c3n2)cc1")
"92%"
>>> result("CCOc1cc(N2CCC(O)CC2)ccc1Nc1ncc2c(n1)N(C)c1ccccc1C(=O)N2C")
"100%"
>>> result("CC1=C(C(=O)Nc2cc3cn[nH]c3cc2F)C(c2ccc(C(F)(F)F)cc2)CC(=O)N1 (centres undefined)")
"99%"
>>> result("Cc1cn(-c2cc(C(=O)Nc3ccc(C)c(NC(=O)c4ccno4)c3)cc(C(F)(F)F)c2)cn1")
"100%"
>>> result("COc1cc2ncnc(Nc3cccc(Cl)c3)c2cc1OC")
"74%"
>>> result("CCCS(=O)(=O)Nc1ccc(F)c(C(=O)c2c[nH]c3ncc(Cl)cc23)c1F")
"76%"
>>> result("CC(=O)c1c(C)c2cnc(Nc3ccc(N4CCNCC4)cn3)nc2n(C2CCCC2)c1=O")
"40%"
>>> result("COc1ccc(N(C(=O)Oc2cc(C(=O)Nc3cccc(C(F)(F)F)c3)ccc2C)c2ccnc(Nc3ccc(N4CCN(C)CC4)cc3)n2)c(OC)c1")
"100%"

====

target-under-test: TGFBR2 (human)
measurement-notes: KINOMEscan competition binding
applied-conditions: compound 10.0 µM
endpoint: kinase still bound, per cent of control

>>> result("CCOc1cc(N2CCC(O)CC2)ccc1Nc1ncc2c(n1)N(C)c1ccccc1C(=O)N2C")
"100%"
>>> result("Cc1cn(-c2cc(C(=O)Nc3ccc(C)c(NC(=O)c4ccno4)c3)cc(C(F)(F)F)c2)cn1")
"100%"
>>> result("COc1ccc(N(C(=O)Oc2cc(C(=O)Nc3cccc(C(F)(F)F)c3)ccc2C)c2ccnc(Nc3ccc(N4CCN(C)CC4)cc3)n2)c(OC)c1")
"100%"
>>> result("CCc1nc(-c2cccc(C)c2)c(-c2ccnc(NC(=O)c3ccccc3)c2)s1")
"82%"
>>> result("CNC(=O)Nc1ccc(-c2nc(N3CC4CCC(C3)O4)c3cnn(C4CCC5(CC4)OCCO5)c3n2)cc1")
"100%"
>>> result("CC1=C(C(=O)Nc2cc3cn[nH]c3cc2F)C(c2ccc(C(F)(F)F)cc2)CC(=O)N1 (configuration not stated)")
"85%"
>>> result("CCCS(=O)(=O)Nc1ccc(F)c(C(=O)c2c[nH]c3ncc(Cl)cc23)c1F")
"6.6%"
>>> result("COc1cc2c(Nc3ccc(NC(=O)c4ccccc4)cc3)ncnc2cc1OCCCN1CCOCC1")
"82%"
>>> result("C=CC(=O)Nc1ccc(C(=O)c2sc(Nc3ccc(N4CCN(C)CC4)cc3OC)nc2N)cc1")
"100%"
>>> result("COc1cc(C)c(Sc2cnc(NC(=O)c3ccc(CNC(C)C(C)C)cc3)s2)cc1C(=O)N1CCN(C(C)=O)CC1 (configuration not stated)")
"100%"
>>> result("N#C/C(=C1/Nc2ccccc2S1)c1ccnc(NCCc2cccnc2)n1")
"100%"
>>> result("N#Cc1cc(-c2ccnc(Nc3ccc(-n4cnc(-c5cccnc5)n4)cc3)n2)cc(N2CCOCC2)c1")
"100%"
>>> result("CCN1CCN(Cc2ccc(NC(=O)c3ccc(C)c(/C=C/c4cnc5[nH]ccc5c4OC)c3)cc2C(F)(F)F)CC1")
"5.7%"
>>> result("O=c1[nH]c2ccccc2n1C1CCN(Cc2ccc(-c3nc4cc5[nH]cnc5cc4nc3-c3ccccc3)cc2)CC1")
"100%"
>>> result("CCN(CCO)CCCOc1ccc2c(Nc3cc(CC(=O)Nc4cccc(F)c4)[nH]n3)ncnc2c1")
"100%"
>>> result("COc1cc2ncnc(Nc3cccc(Cl)c3)c2cc1OC")
"91%"
>>> result("COc1cc(N2CCC(C(N)=O)CC2)ccc1Nc1nc(N)c(Cl)c(Nc2ccccc2S(=O)(=O)C(C)C)n1")
"100%"
